target: Prostaglandin E synthase (Homo sapiens, UniProt O14684); experiment: Inhibition of mPGES1 expressed in Escherichia coli Rosetta-DE3 assessed as reduction in PGE2 production by enzyme immunoassay based cell-free system assay
Sequence (O14684 whole entry): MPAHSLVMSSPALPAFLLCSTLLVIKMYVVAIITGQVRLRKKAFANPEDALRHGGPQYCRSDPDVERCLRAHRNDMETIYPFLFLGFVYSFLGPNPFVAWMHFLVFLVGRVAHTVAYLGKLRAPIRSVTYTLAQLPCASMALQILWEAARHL
Each entry below carries its reported IC50.
Write the value in µM as a bare number.

Cc1cccc(N=C2NS(=O)(=O)c3cc([N+](=O)[O-])ccc32)c1; 6.7

In the following, a different compound is considered.
Q: Give its IC50 value. Item: "O=C(Oc1cccc2ccccc12)c1cc([N+](=O)[O-])cc([N+](=O)[O-])c1"
A: 3.6

* * *

target: Polyunsaturated fatty acid 5-lipoxygenase (Homo sapiens, UniProt P09917); assay: Inhibition of human recombinant 5-LOX expressed in Escherichia coli […] incubated 10 mins before substrate addition by fluorescence spectrophotometry based cell free system assay
Sequence (P09917 whole entry): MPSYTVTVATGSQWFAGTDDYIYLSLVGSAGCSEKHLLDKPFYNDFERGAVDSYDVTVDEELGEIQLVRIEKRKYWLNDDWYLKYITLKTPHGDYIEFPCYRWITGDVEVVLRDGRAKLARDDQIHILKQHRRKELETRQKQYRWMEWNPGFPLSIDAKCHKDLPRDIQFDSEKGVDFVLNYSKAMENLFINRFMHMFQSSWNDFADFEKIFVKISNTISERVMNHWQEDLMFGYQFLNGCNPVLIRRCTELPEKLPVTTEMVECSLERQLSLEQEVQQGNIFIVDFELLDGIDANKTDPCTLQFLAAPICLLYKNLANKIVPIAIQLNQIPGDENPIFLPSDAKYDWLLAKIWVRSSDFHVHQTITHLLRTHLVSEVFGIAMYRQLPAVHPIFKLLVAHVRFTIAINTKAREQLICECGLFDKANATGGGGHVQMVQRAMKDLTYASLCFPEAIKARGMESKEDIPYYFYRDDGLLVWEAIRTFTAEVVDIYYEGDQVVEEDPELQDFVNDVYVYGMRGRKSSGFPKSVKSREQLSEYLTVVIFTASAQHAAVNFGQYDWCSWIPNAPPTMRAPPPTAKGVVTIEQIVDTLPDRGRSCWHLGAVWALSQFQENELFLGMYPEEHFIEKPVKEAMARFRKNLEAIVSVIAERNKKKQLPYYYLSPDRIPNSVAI
Each entry below carries its reported pIC50.
// pIC50 here means minus log10 of the molar concentration (mol/L)

Cn1ncc(Cl)c1C(=O)N/N=C/c1ccccc1OC(=O)c1ccc([N+](=O)[O-])cc1; 5.27

Q: Test system Polyunsaturated fatty acid 5-lipoxygenase (Homo sapiens, UniProt P09917); read-out pIC50; what value for "O=C(CSc1nnnn1-c1ccc(Cl)c(C(=O)O)c1)Nc1ccc(F)cc1" ?
A: 4.82

Q: Test system Polyunsaturated fatty acid 5-lipoxygenase (Homo sapiens, UniProt P09917); read-out pIC50; what value for "O=[N+]([O-])c1ccc(Cl)c(S(=O)(=O)n2cnc3ccccc32)c1" ?
A: 5.16

Q: Test system Polyunsaturated fatty acid 5-lipoxygenase (Homo sapiens, UniProt P09917); read-out pIC50; what value for "Clc1ccc(-c2nn3c(Cc4ccccc4)nnc3s2)cc1Cl" ?
A: 4.43

Q: Test system Polyunsaturated fatty acid 5-lipoxygenase (Homo sapiens, UniProt P09917); read-out pIC50; what value for "O=C(NCCNC(=O)c1ccc([N+](=O)[O-])o1)c1ccc2ccccc2n1" ?
A: 4.09

Q: Test system Polyunsaturated fatty acid 5-lipoxygenase (Homo sapiens, UniProt P09917); read-out pIC50; what value for "Cc1cccc(N=C2NS(=O)(=O)c3cc([N+](=O)[O-])ccc32)c1" ?
A: 5.73

Q: Test system Polyunsaturated fatty acid 5-lipoxygenase (Homo sapiens, UniProt P09917); read-out pIC50; what value for "O=C(O/N=C/c1ccc(Br)cc1)c1cc([N+](=O)[O-])cc([N+](=O)[O-])c1" ?
A: 6.21

Q: Test system Polyunsaturated fatty acid 5-lipoxygenase (Homo sapiens, UniProt P09917); read-out pIC50; what value for "O=C(COC(=O)c1ccc(C(=O)c2ccc([N+](=O)[O-])cc2)cc1)c1ccccc1" ?
A: 5.83

Q: Test system Polyunsaturated fatty acid 5-lipoxygenase (Homo sapiens, UniProt P09917); read-out pIC50; what value for "O=C1OC(c2ccc3ccccc3c2)=N/C1=C\c1ccc(Cl)cc1" ?
A: 4.10
